Tested on: Tyrosine-protein kinase ABL1 (Homo sapiens), P00519 [Y253F]
test settings: at 0.1 µM
In this section we review reported inhibition values for a set of molecules.
parameter: inhibition (%)

# smiles str, parameter, result
data = [
    ("NC(=O)c1cc(-c2ccncc2)cc(-c2ccccc2)c1N", "inhibition", 8.23),
    ("C/C(Nc1ccc(S(N)(=O)=O)cc1)=C1/C(=O)Nc2ccccc21", "inhibition", -0.47),
    ("NS(=O)(=O)c1ccc(Nc2cc(-c3ccc(O)c(F)c3)n[nH]2)cc1", "inhibition", 2.85),
    ("C[C@@H](Oc1cc(-n2cnc3ccc(OCC4CCN(C)CC4)cc32)sc1C(N)=O)c1ccccc1Cl", "inhibition", 2.53),
    ("CS(=O)(=O)CCNCc1cc(-c2cc3c(Nc4ccc(OCc5cccc(F)c5)c(Cl)c4)ncnc3s2)cs1", "inhibition", 2.36),
    ("O=C(Nc1n[nH]c2cc(-c3ccccc3)ccc12)C1CC1", "inhibition", 22.3),
    ("CN(C)CCOc1ccc(-c2cc(-c3ccc4c(c3)CCC4=NO)c(-c3ccncc3)o2)cc1", "inhibition", 2.44),
    ("COC(=O)Nc1nc2ccc(Sc3ccc(NC(=O)Nc4cc(C(F)(F)F)ccc4F)cc3)cc2[nH]1", "inhibition", 3.61),
    ("CS(=O)(=O)CCNCc1ccc(-c2ccc3ncnc(Nc4ccc(OCc5ccccc5)c(Br)c4)c3c2)o1", "inhibition", 4.14),
    ("O=C1Nc2ccc(I)cc2C1=Cc1cc(Br)c(O)c(Br)c1", "inhibition", 1.68),
    ("COc1cc2ncn(-c3cc(OCCc4ccccc4)c(C(N)=O)s3)c2cc1OC", "inhibition", 3.32),
    ("COc1cc2ncn(-c3cc(OCc4ccccc4C(F)(F)F)c(C(C)=O)s3)c2cc1OC", "inhibition", 3.33),
    ("NCc1ccc(-n2c(-c3nonc3N)nc3cnccc32)cc1", "inhibition", 4.15),
    ("c1ccc(Oc2ccc(Nc3ncc(-c4ccccc4)o3)cc2)cc1", "inhibition", 1.56),
    ("NS(=O)(=O)c1ccc(N/N=C2\\C(=O)Nc3ccc(C(=O)NCCCn4ccnc4)cc32)cc1", "inhibition", 5.66),
    ("NS(=O)(=O)c1ccc(N/N=C2\\C(=O)Nc3ccc(-c4cnco4)cc32)cc1", "inhibition", 3.03),
    ("c1ccc(-c2n[nH]cc2-c2ccnc(-c3ccc(OCCN4CCOCC4)cc3)c2)nc1", "inhibition", 13.5),
    ("Cc1ccc(NC(=O)c2ccoc2)cc1-c1ccc(C(=O)NCC2CC2)cc1", "inhibition", 1.38),
    ("CCS(=O)(=O)c1ccc(OC)c(Nc2ncc(-c3ccccc3Cl)o2)c1", "inhibition", 5.95),
    ("CCc1nccc2c1nc(-c1nonc1N)n2CC", "inhibition", 2.18),
    ("CCc1cccc(CC)c1/C=C/c1cncc(C(=O)NC)c1", "inhibition", 5.29),
]

###

assay system: NUAK family SNF1-like kinase 1 (Homo sapiens) (UniProt O60285)
Sequence (O60285 whole entry): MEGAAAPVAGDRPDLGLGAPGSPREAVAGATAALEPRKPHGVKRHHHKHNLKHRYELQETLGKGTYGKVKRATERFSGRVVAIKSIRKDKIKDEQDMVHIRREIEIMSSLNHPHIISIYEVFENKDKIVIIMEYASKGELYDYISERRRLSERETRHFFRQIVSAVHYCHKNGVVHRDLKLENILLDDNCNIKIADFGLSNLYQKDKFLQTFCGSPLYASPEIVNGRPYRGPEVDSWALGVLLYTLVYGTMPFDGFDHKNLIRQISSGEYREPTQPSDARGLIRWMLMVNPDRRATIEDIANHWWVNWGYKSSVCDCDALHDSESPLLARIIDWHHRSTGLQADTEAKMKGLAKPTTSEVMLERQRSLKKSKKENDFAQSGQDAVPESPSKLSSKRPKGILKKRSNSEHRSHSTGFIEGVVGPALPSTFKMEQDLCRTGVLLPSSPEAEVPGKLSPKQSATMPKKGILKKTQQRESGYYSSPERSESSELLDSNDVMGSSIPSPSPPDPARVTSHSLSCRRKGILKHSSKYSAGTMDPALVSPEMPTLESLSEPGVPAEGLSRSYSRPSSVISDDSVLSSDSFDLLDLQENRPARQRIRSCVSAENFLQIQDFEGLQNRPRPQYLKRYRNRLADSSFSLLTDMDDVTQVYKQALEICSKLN
test settings: at 1 µM
Description: GSK_PKIS: ARK5 mean inhibition at 1 uM [Nanosyn]
Below: a set of entries, each annotated with reported inhibition.
parameter: inhibition (%)

# smiles str, parameter, unit symbol, result
measured = [
    ("COC(=O)Nc1nc2ccc(Sc3ccc(NC(=O)Nc4cc(C(F)(F)F)ccc4F)cc3)cc2[nH]1", "inhibition", "%", -4.85),
    ("NS(=O)(=O)c1ccc(N/N=C2\\C(=O)Nc3ccc(C(=O)NCCCn4ccnc4)cc32)cc1", "inhibition", "%", 66.4),
    ("CS(=O)(=O)CCNCc1cc(-c2cc3c(Nc4ccc(OCc5cccc(F)c5)c(Cl)c4)ncnc3s2)cs1", "inhibition", "%", 3.79),
    ("C[C@@H](Oc1cc(-n2cnc3ccc(OC4CCN(C)CC4)cc32)sc1C(N)=O)c1ccccc1Cl", "inhibition", "%", 66.8),
    ("NS(=O)(=O)c1ccc(Nc2cc(-c3ccc(O)c(F)c3)n[nH]2)cc1", "inhibition", "%", 11),
    ("Fc1ccc(-c2ncn(C3CCNCC3)c2-c2ccnc(Oc3ccc4c(c3)OCO4)n2)cc1", "inhibition", "%", 3.25),
    ("Fc1ccc(-c2ncn(C3CCNCC3)c2-c2ccnc(Oc3ccc(F)c(F)c3)n2)cc1", "inhibition", "%", 6.58),
    ("NS(=O)(=O)c1ccc(N/N=C2\\C(=O)Nc3ccc(-c4cnco4)cc32)cc1", "inhibition", "%", 35.2),
    ("COc1cc(Nc2ncc3c(C)nc(-c4cccc(Oc5ccccc5)c4)n3n2)cc(OC)c1OC", "inhibition", "%", 26.4),
    ("COc1ccc2cc(-c3c(-c4ccncc4)nc(-c4ccc(S(C)(=O)=O)cc4C)n3C)ccc2c1", "inhibition", "%", 4.31),
    ("COc1cc2ncn(-c3cc(OCCc4ccccc4)c(C(N)=O)s3)c2cc1OC", "inhibition", "%", 9.13),
    ("Clc1ccc(CNc2nccc(-c3cnn4ncccc34)n2)cc1", "inhibition", "%", 9.78),
    ("CN(C)c1ccc2c(c1)/C(=C/Nc1ccc(S(N)(=O)=O)cc1)C(=O)N2", "inhibition", "%", 55.6),
    ("O=C1Nc2ccccc2/C1=C/Nc1ccc(-n2cncn2)cc1", "inhibition", "%", 38.7),
    ("CN(C)CCOc1ccc(-c2cc(-c3ccc4c(c3)CCC4=NO)c(-c3ccncc3)o2)cc1", "inhibition", "%", -0.24),
    ("O=C(Nc1ccc(Oc2ccc3[nH]c(NC(=O)c4ccccc4)nc3c2)cc1)Nc1cc(C(F)(F)F)ccc1F", "inhibition", "%", 3.05),
    ("CCS(=O)(=O)c1ccc(OC)c(Nc2ncc(-c3ccccc3Cl)o2)c1", "inhibition", "%", 1.46),
    ("NCc1ccc(-n2c(-c3nonc3N)nc3cnccc32)cc1", "inhibition", "%", 7.23),
    ("COc1ccc2ncn(-c3cc(O[C@H](C)c4ccccc4Cl)c(C(N)=O)s3)c2c1", "inhibition", "%", 15.7),
    ("CS(=O)(=O)CCNCc1ccc(-c2ccc3ncnc(Nc4ccc(OCc5ccccc5)c(Br)c4)c3c2)o1", "inhibition", "%", 0.63),
    ("C[C@@H](Oc1cc(-n2cnc3ccc(OCC4CCN(C)CC4)cc32)sc1C(N)=O)c1ccccc1Cl", "inhibition", "%", 71.9),
    ("COc1cc(Nc2ncc3c(C)nc(-c4cccc(C(F)(F)F)c4)n3n2)cc(OC)c1OC", "inhibition", "%", 65.3),
    ("CCc1nccc2c1nc(-c1nonc1N)n2CC", "inhibition", "%", 4.47),
    ("O=C(Nc1n[nH]c2nc(-c3ccco3)ccc12)C1CC1", "inhibition", "%", 2.78),
    ("Cc1ccc(C(=O)NC(C)C)cc1-c1ccc(C(=O)NCC2CC2)cc1", "inhibition", "%", 3.92),
    ("Cc1ccc(NC(=O)c2ccoc2)cc1-c1ccc(C(=O)NCC2CC2)cc1", "inhibition", "%", -0.78),
    ("Cc1nnc(-c2ccc(C)c(-c3ccc(C(=O)NCc4ccc(Cl)cc4)cc3)c2)o1", "inhibition", "%", 4.79),
]
